- Tested on: NCI-H929 complex spheroids, viability % test/control
- test_details: Anticancer human tumor NCI-H929 cell line growth inhibition [RAS];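 further: compound exposure lasted seven days before viability was read; 100% = DMSO vehicle control viability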
- test_settings: second compound 0.00949 µM; first compound 0.0316 µM; stronger effect = lower value
# reported viability, T/C; entries follow

compound	viability, T/C (%)
CCN1CCN(Cc2ccc(Nc3ncc(F)c(-c4cc(F)c5nc(C)n(C(C)C)c5c4)n3)nc2)CC1 + CCn1c(-c2cccnc2C(C)OC)c2c3cc(ccc31)N1CCOC(CC(NC(=O)C(C(C)C)N(C)C(=O)C3(F)CCN(C(=O)C#CC(C)(C)N(C)C)CC3)C(=O)N3CCCC(N3)C(=O)OCC(C)(C)C2)C1	99.9
CC(C)n1nc(-c2ccc3oc(N)nc3c2)c2c(N)ncnc21 + CCn1c(-c2cc(N3CCN(C)CC3)cnc2C(C)OC)c2c3cc(ccc31)-c1csc(n1)CC(NC(=O)C1CC1C)C(=O)N1CCCC(N1)C(=O)OCC(C)(C)C2	45.1
NC1c2ccccc2OC12CCN(c1cnc3c(N4CCCc5ncccc54)n[nH]c3n1)CC2 (centres undefined) + CCn1c(-c2cccnc2C(C)OC)c2c3cc(ccc31)N1CCOC(CC(NC(=O)C(C(C)C)N(C)C(=O)C3(F)CCN(C(=O)C#CC(C)(C)N(C)C)CC3)C(=O)N3CCCC(N3)C(=O)OCC(C)(C)C2)C1	101
CC(Nc1ccc2c(c1)OCCn1cc(N3C(=O)OCC3C(F)F)nc1-2)C(N)=O (centres undefined) + CCn1c(-c2cc(N3CCN(C)CC3)cnc2C(C)OC)c2c3cc(ccc31)-c1csc(n1)CC(NC(=O)C1CC1C)C(=O)N1CCCC(N1)C(=O)OCC(C)(C)C2	110

Source listed as PubChem BioAssay AID2060884.
